system: WA09 hES cells; experiment: Phase 2 targeted biomarker assay, ornithine/cystine ratio, 9-point dose response
Measurement kind: Targeted Biomarker Assay prediction

Solved entries (count: 9):
# Compound, Targeted Biomarker Assay prediction
rows = [
    ("Nc1nc(NC2CC2)c2ncn([C@H]3C=C[C@@H](CO)C3)c2n1 [Abacavir]", "NON"),
    ("NC(=O)NO [Hydroxyurea]", "TER"),
    ("CC(C)(C)C(=O)OCOP(=O)(COCCn1cnc2c(N)ncnc21)OCOC(=O)C(C)(C)C [Adefovir dipivoxil]", "TER"),
    ("CN(C)CCOC(c1ccccc1)c1ccccc1 [Diphenhydramine]", "NON"),
    ("Nc1nc2ncc(CNc3ccc(C(=O)N[C@@H](CCC(=O)O)C(=O)O)cc3)nc2c(=O)[nH]1 [Folic Acid]", "NON"),
    ("CCN(CC)C(=O)/C(C#N)=C/c1cc(O)c(O)c([N+](=O)[O-])c1 [Entacapone]", "TER"),
    ("CN(C)CCOC(C)(c1ccccc1)c1ccccn1 (stereo not shown) [Doxylamine]", "NON"),
    ("CS(=O)(=O)CCNCc1ccc(-c2ccc3ncnc(Nc4ccc(OCc5cccc(F)c5)c(Cl)c4)c3c2)o1 [Lapatinib]", "NON"),
    ("CN(Cc1cnc2nc(N)nc(N)c2n1)c1ccc(C(=O)N[C@@H](CCC(=O)O)C(=O)O)cc1 [Methotrexate]", "TER"),
]

Let us move to another entry and its Targeted Biomarker Assay prediction.
Need Targeted Biomarker Assay prediction, item CCCC(CCC)C(=O)O [Valproic Acid]
TER
